STUDY SYSTEM: vanilloid receptor 1 (VR1/TRPV1 receptor) (Homo sapiens, UniProt Q8NER1)
ASSAY TEXT: FLIPR functional assay (Ca2+ influx, capsaicin) on the vanilloid receptor 1
Type: cell-based
ASSAY SETUP: functional (f), capsaicin (Cap) stimulus, Ki from IC50 by Cheng-Prusoff, read-out: (f) Ki (human being) [nM] Cap
READOUT NAME: log10 Ki (log10 of the value in nM)
Heads up: the numbers are on a log10 scale; they represent Ki in nM.

These recorded examples may help you get a feel for the data.
INSERT INTO assay_data (molecule, study_system, obs_value) VALUES
  ('CC1CCN(c2nc(C(F)(F)F)ccc2CNC(=O)Nc2ccc(CNS(C)(=O)=O)cc2)CC1', 'vanilloid receptor 1 (VR1/TRPV1 receptor) (Homo sapiens, UniProt Q8NER1)', 0.60),
  ('CS(=O)(=O)NCc1ccc(NC(=O)NCc2ccc(C(F)(F)F)nc2N2CCCC2)cc1', 'vanilloid receptor 1 (VR1/TRPV1 receptor) (Homo sapiens, UniProt Q8NER1)', 1.41),
  ('CC1CCN(c2nc(C(F)(F)F)ccc2CNC(=O)Nc2ccc(CNS(C)(=O)=O)c(O)c2)CC1', 'vanilloid receptor 1 (VR1/TRPV1 receptor) (Homo sapiens, UniProt Q8NER1)', 0.78),
  ('NS(=O)(=O)NCc1ccc(CCC(=O)NCc2ccc(C(F)(F)F)nc2N2CCCC2)cc1', 'vanilloid receptor 1 (VR1/TRPV1 receptor) (Homo sapiens, UniProt Q8NER1)', 1.58),
  ('CC1CCN(c2nc(C(C)(C)C)ccc2CNC(=O)C(C)c2ccc(CNS(C)(=O)=O)c(F)c2)CC1 (stereo not shown)', 'vanilloid receptor 1 (VR1/TRPV1 receptor) (Homo sapiens, UniProt Q8NER1)', 0.70);

vanilloid receptor 1 (VR1/TRPV1 receptor) (Homo sapiens, UniProt Q8NER1) assay, molecule CCCCNc1nc(C(F)(F)F)ccc1CNC(=O)C(C)c1ccc(CNS(C)(=O)=O)c(F)c1 (stereo not shown) , recorded log10 Ki = 1.98

Hey, vanilloid receptor 1 (VR1/TRPV1 receptor) (Homo sapiens, UniProt Q8NER1) data for CC1CCN(c2nc(C(F)(F)F)ccc2CNC(=O)Nc2ccc(CNS(C)(=O)=O)c(F)c2)CC1 : log10 Ki came out at 0.70

vanilloid receptor 1 (VR1/TRPV1 receptor) (Homo sapiens, UniProt Q8NER1) data for Cc1cc(NC(=O)NCc2ccc(C(F)(F)F)nc2N2CCC(C)CC2)ccc1CNS(C)(=O)=O ; its log10 Ki: 0.70

Response field log10 Ki (vanilloid receptor 1 (VR1/TRPV1 receptor) (Homo sapiens, UniProt Q8NER1)) for item COc1cc(C(C)C(=O)NCc2ccc(C(F)(F)F)nc2N2CCCC2)ccc1CNS(C)(=O)=O (stereo not shown) : 1.94

# value of log10 Ki, vanilloid receptor 1 (VR1/TRPV1 receptor) (Homo sapiens, UniProt Q8NER1), item CC1CCN(c2nc(C(F)(F)F)ccc2CNC(=O)C(C)c2ccc(CNS(N)(=O)=O)cc2)CC1 (stereo not shown) = 0.30

Tested system vanilloid receptor 1 (VR1/TRPV1 receptor) (Homo sapiens, UniProt Q8NER1); log10 Ki recorded for CC1CCN(c2nc(C(F)(F)F)ccc2CNC(=O)Cc2ccc(CNS(C)(=O)=O)c(F)c2)CC1 was 0.60

Record for CC1CCN(c2nc(C(F)(F)F)ccc2CNC(=O)Nc2ccc(CNS(N)(=O)=O)cc2)CC1 under target or system vanilloid receptor 1 (VR1/TRPV1 receptor) (Homo sapiens, UniProt Q8NER1): log10 Ki reported as 0.00

Short answer on vanilloid receptor 1 (VR1/TRPV1 receptor) (Homo sapiens, UniProt Q8NER1) for CC(C(=O)NCc1ccc(C(F)(F)F)nc1N1CCCC1)c1ccc(CNS(C)(=O)=O)c(Cl)c1 (stereo not shown) , log10 Ki: 1.90

Item: CC1CCN(c2nc(C(F)(F)F)ccc2CNC(=O)C(C)c2ccc(CN(C)S(C)(=O)=O)c(F)c2)CC1 (stereo not shown) | System: vanilloid receptor 1 (VR1/TRPV1 receptor) (Homo sapiens, UniProt Q8NER1) | log10 Ki: 1.74

Sample CC1CCN(c2nc(C(F)(F)F)ccc2CNC(=O)C(C)c2ccc(CNS(N)(=O)=O)c(F)c2)CC1 (stereo not shown) , system: vanilloid receptor 1 (VR1/TRPV1 receptor) (Homo sapiens, UniProt Q8NER1). Its log10 Ki is 0.60

Measured log10 Ki for this entry CC(C(=O)NCc1ccc(C(F)(F)F)nc1N1CCCCC1)c1ccc(CNS(C)(=O)=O)c(F)c1 (stereo not shown) on vanilloid receptor 1 (VR1/TRPV1 receptor) (Homo sapiens, UniProt Q8NER1): 0.70
